- Protocol Notes: Cellular viability qHTS for adrenocortical cancer (ACC) cell line NCI-H295R (AID 1963990); note: nearly all actives have a fitted effect of over 60% in size
- Measurement Parameters: CellTiter-Glo ATP luminescence, 48 h; series mostly up to 46.1 µM
- Description: PI: Naris Nilubol, MD Surgical Oncology Program, National Cancer Institute (NCI) National Institute of Health (NIH), Bethesda, Maryland Adrenocortical cancer (ACC) is a rare malignancy with poor survival outcomes and few treatment options. Currently, mitotane is the only FDA-approved therapy for ACC. […] Through a quantitative high-throughput drug screen (qHTS), we identified auranofin (AF), a thioredoxin reductase (TXNRD) inhibitor, as a promising candidate drug. […]
Results filed as inconclusive are left out. Active and inactive are the calls of the source. Calls come from the whole dose curve; as a rule, active = well fitted cell-killing curve with a large enough effect; inconclusive = small, poorly fitted or top-dose-only effect; inactive = flat fitted curve, though single readings scatter.
Output constraint: value belongs to label 1 = active, label 0 = inactive

- CC(=O)N1c2ccc(-c3ccc(C(=O)O)cc3)cc2[C@H](Nc2ccc(Cl)cc2)C[C@@H]1C: label 1
- Oc1ccc(Cl)c2cccnc12: label 0
- Cc1[nH]c2ccc(F)cc2c1-c1nc2c3cccnc3c3ncccc3c2[nH]1: label 1
- CN1CCN(C(c2ccccc2)c2ccccc2)CC1: label 0
- O=C(O)c1ccccc1C(=O)Nc1ccc(-c2ccccc2)cc1: label 0

Identify the outcome logged in this assay for the compound shown: Cc1[nH]c(/C=C2\C(=O)Nc3ccc(S(=O)(=O)N(C)c4cccc(Cl)c4)cc32)c(C)c1C(=O)N1CCN(C)CC1
label 1

Identify the outcome logged in this assay for the compound shown: COc1cc(C)c(Sc2cnc(NC(=O)c3ccc(CNC(C)C(C)C)cc3)s2)cc1C(=O)N1CCN(C(C)=O)CC1 (stereo unspecified)
label 1

Identify the outcome logged in this assay for the compound shown: N=C1S/C(=C\c2ccc(-c3ccc4c(c3)C(=O)NC4=O)o2)C(=O)N1c1ccc(Br)cc1
label 0

---

- Protocol Notes: Viability qHTS for spleen associated tyrosine kinase inhibitor (SYKi) drug resistant MV4-11 cells (AID 1963824); note: nearly all actives have a fitted effect of over 35% in size
- Measurement Parameters: SYKi-resistant MV4-11 viability, CellTiter-Glo, 72 h; series mostly up to 45 µM
- Experimental: Department of Medicine, Hematology/Oncology University Hospital Frankfurt, Germany. Trials have shown promising clinical activity of the selective SYK inhibitor entospletinib in patients with high expressing HOXA9/MEIS1 acute leukemias. […] 7; Detection; Luminescence; ViewLux plate reader (PerkinElmer). […] 1. Quantitative high-throughput screening (qHTS) of small molecule compounds was conducted on drug resistant SYKi MV4-11 cell line. […] 7. Luminescence was measured on a ViewLux plate reader (PerkinElmer).
Inconclusive results are not listed. Active and inactive are the calls of the source. Calls follow the shape of the dose curve; as a rule, active = well fitted cell-killing curve with a large enough effect; inconclusive = small, poorly fitted or top-dose-only effect, or effect the other way; inactive = no such curve, though single readings can be large or run the other way.
viability, % of control: recorded values

These recorded examples may help you get a feel for the data.
* C[C@@H]1O[C@@H](OC2C(O[C@H]3[C@H](O[C@H]4CC[C@@]5(C)C(CC[C@]6(C)C5CC=C5C7CC(C)(C)CC(O)[C@]7(C)CC[C@]56C)C4(C)C)O[C@H](C(=O)O)[C@@H](O)[C@@H]3O)OC(CO)C(O)C2O)[C@H](O)[C@H](O)[C@H]1O (stereo partly specified) | 97.3% [at 9.25 µM] (inactive)
* CC(C)=CCc1cc(C(O)C2NC(=O)CNC(=O)C(Cc3c[nH]c4ccccc34)NC(=O)C3CCCN3C(=O)CNC(=O)C(C(C)C)NC(=O)CNC2=O)ccc1O (stereo unspecified) | 92.7% [at 9.25 µM] (inactive)
* CC1(C)CC[C@]2(C(=O)O[C@@H]3O[C@H](CO)[C@@H](O)[C@H](O)[C@H]3O)CC[C@]3(C)C(=CCC4[C@@]5(C)CC[C@H](OC6OC(C(=O)O)C(OC7OC(CO)C(O)C(O)C7O)C(O)C6O)C(C)(C)C5CC[C@]43C)C2C1 (stereo partly specified) | 91.6% [at 9.25 µM] (inactive)
* CCCCCCCCCCOc1cc2c(=O)c(C(=O)OCC)c[nH]c2cc1OCC | 107% [at 4.97 µM] (inactive)
* C[C@@H]1O[C@@H](O[C@H]2[C@H](O[C@H]3[C@H](O[C@H]4CC[C@@]5(C)C(CC[C@]6(C)C5CC=C5[C@@H]7CC(C)(C)C[C@@H](O)[C@]7(C)CC[C@]56C)[C@@]4(C)CO)O[C@H](C(=O)O)[C@@H](O)[C@@H]3O)O[C@H](C(=O)O)[C@H](O)[C@@H]2O)[C@H](O)[C@H](O)[C@H]1O (stereo partly specified) | 86.7% [at 9.25 µM] (inactive)
* COc1cc(O[C@@H]2O[C@H](CO)[C@@H](O)[C@H](O)[C@H]2O)c(CCC(=O)OC[C@H]2O[C@@H](Oc3cc(OC)c(C4OC(=O)C(C)(O)C4O)cc3CCC(=O)O)[C@H](O)[C@@H](O)[C@@H]2O)cc1C1OC(=O)C(C)(O)C1O (stereo partly specified) | 81.1% [at 9.25 µM] (inactive)
* NCCCNCCSP(=O)(O)O | 105% [at 9.25 µM] (inactive)
* CC1(C)C[C@H]2C3=CCC4[C@@]5(C)CC[C@H](O[C@H]6O[C@H](C(=O)O)[C@@H](O)[C@H](O)[C@H]6O[C@H]6O[C@H](CO)[C@@H](O)[C@H](O)[C@H]6O[C@@H]6O[C@H](CO)[C@@H](O)[C@H](O)[C@H]6O)[C@](C)(CO)C5CC[C@@]4(C)[C@]3(C)CC[C@@]2(C)[C@H](O[C@@H]2OC[C@H](O)[C@H](OC3O[C@H](CO)[C@@H](O)[C@H](O)[C@H]3O)[C@H]2O)[C@@H]1O (stereo partly specified) | 93.8% [at 9.25 µM] (inactive)

// query viability, % of control value for entry C[C@@H](O)[C@H](N)C(=O)N1CCC[C@H]1C(=O)N1CCC[C@H]1C(=O)N[C@H](C(N)=O)[C@@H](C)O
81.3% [at 9.25 µM] (inactive)

// query viability, % of control value for entry CC(CCC1(O)OC2CC3C4CCC5CC(O[C@@H]6O[C@H](CO)[C@@H](O)[C@H](O)[C@H]6O[C@@H]6O[C@@H](C)[C@H](O)[C@@H](O)[C@H]6O)C(O)CC5(C)C4CCC3(C)C2C1C)CO[C@@H]1O[C@H](CO)[C@@H](O)[C@H](O)[C@H]1O (stereo partly specified)
109% [at 9.25 µM] (inactive)

// query viability, % of control value for entry COc1cc2c(cc1OC)CN(CCc1ccc(-n3nnc(-c4cc(OC)c(OC)cc4NC(=O)c4cc(=O)c5ccccc5o4)n3)cc1)CC2
98% [at 0.588 µM] (inactive)

// query viability, % of control value for entry C[C@@H]1O[C@@H](O[C@H]2[C@H](OC(=O)[C@]34CCC(C)(C)C[C@H]3C3=CCC5[C@@]6(C)CC[C@H](O[C@@H]7O[C@H](CO[C@@H]8OC[C@H](O)[C@H](O)[C@H]8O)[C@@H](O)[C@H](O)[C@H]7O)C(C)(C)C6CC[C@@]5(C)[C@]3(C)C[C@H]4O)OC[C@@H](O)[C@@H]2O)[C@H](O)[C@H](O[C@@H]2OC[C@](O)(CO)[C@H]2O)[C@H]1O[C@@H]1OC[C@H](O)[C@H](O[C@@H]2OC[C@@H](O)[C@H](O)[C@H]2O)[C@H]1O (stereo partly specified)
88.4% [at 9.25 µM] (inactive)

// query viability, % of control value for entry COC1CC(O[C@H]2CC[C@@]3(C)C(CCC4C3[C@H](OC(C)=O)[C@@H](OC(=O)/C=C/c3ccccc3)[C@]3(C)C(C(C)=O)CC[C@]43O)C2)OC(C)C1OC1CC(OC)C(OC2CC(OC)C(OC3OC(C)C(OC4OC(CO)C(O)C(O)C4O)C(OC)C3O)C(C)O2)C(C)O1 (stereo partly specified)
45.7% [at 9.25 µM] (inactive)

// query viability, % of control value for entry C[C@@H]1CC[C@]2(C(=O)O[C@@H]3O[C@H](CO[C@@H]4O[C@H](CO)[C@@H](O[C@@H]5O[C@@H](C)[C@H](O)[C@@H](O)[C@H]5O)[C@H](O)[C@H]4O)[C@@H](O)[C@H](O)[C@H]3O)CC[C@]3(C)C(=CCC4[C@@]5(C)C[C@@H](O)[C@H](O)[C@@](C)(CO)C5CC[C@]43C)C2[C@H]1C (stereo partly specified)
113% [at 9.25 µM] (inactive)

// query viability, % of control value for entry C[C@@H]1O[C@@H](O[C@H]2[C@H](O)[C@@H](O)[C@H](OC(=O)[C@]34CCC(C)(C)C[C@H]3C3=CCC5[C@@]6(C)CC[C@H](O[C@@H]7O[C@H](C(=O)O)[C@@H](O)[C@H](O)[C@H]7O)C(C)(C)C6CC[C@@]5(C)[C@]3(C)CC4)O[C@@H]2CO)[C@H](O)[C@H](O)[C@H]1O (stereo partly specified)
75.6% [at 9.25 µM] (inactive)

// query viability, % of control value for entry CC1(C)CC[C@@]2(C(=O)O[C@@H]3O[C@H](CO)[C@@H](O)[C@H](O)[C@H]3O)C(C1)C1=CCC3[C@@]4(C)CC[C@@H](O[C@@H]5O[C@H](C(=O)O)[C@@H](O[C@@H]6OC[C@@H](O)[C@H](O)[C@H]6O)[C@H](O[C@@H]6OC[C@](O)(CO)[C@H]6O)[C@H]5O)C(C)(C)C4CC[C@@]3(C)[C@]1(C)C[C@H]2O (stereo partly specified)
12% [at 9.25 µM] (inactive)
